test: qHTS of pediatric cancer cell lines to identify multiple opportunities for drug repurposing: Primary screen for NB1643 cells (AID 1347099); conditions: NB1643 neuroblastoma viability, CellTiter-Glo luminescence, 48 h; series mostly up to 46 µM; note: nearly all actives have a fitted effect of over 50% in size
Results filed as inconclusive are left out. Activity calls are given as the source filed them. Calls come from the whole dose curve; as a rule, active = well fitted cell-killing curve with a large enough effect; inconclusive = small, poorly fitted or top-dose-only effect; inactive = no such curve, though single readings can be large or run the other way.
Hi there, use one of these labels in your reply, thanks! active, inactive

Given CC(C)OC(=O)CCCC=CC[C@@H]1[C@H](C=C[C@@H](O)COc2cccc(C(F)(F)F)c2)[C@H](O)C[C@@H]1O , state the outcome it received in this test.
active

Given COc1ccc(-c2coc3cc(O)ccc3c2=O)cc1 , state the outcome it received in this test.
inactive

Given CC(=Cc1ccccc1)C=C1SC(=S)N(CC(=O)O)C1=O , state the outcome it received in this test.
inactive

Given CCc1ccc(C=C2SC(=S)NC2=O)cc1 , state the outcome it received in this test.
active

Given Cc1ccn(-c2ccc(-c3ncco3)cc2)c(=O)c1-c1ccc2nc(N)ncc2c1 , state the outcome it received in this test.
inactive

Given O=C1NC(=O)C(c2ccccc2)(c2ccccc2)N1 , state the outcome it received in this test.
inactive

----------
target: Peroxisome proliferator-activated receptor delta (Homo sapiens); test: qHTS assay for small molecule antagonists of peroxisome proliferator-activated receptor delta signaling (AID 588535); conditions: HEK293T PPARd-UAS-bla, beta-lactamase FRET ratio, 18 h; series mostly up to 76.7 µM
Results filed as inconclusive are left out. The source made the active and inactive calls. Calls come from the whole dose curve; as a rule, active = well fitted inhibition curve with a large enough effect in the signal ratio, with a control signal flat (not every such curve was filed as active); inconclusive = small, poorly fitted or top-dose-only effect, or effect the other way, or a change in a side signal; inactive = no such curve, though single readings can be large or run the other way; the % refers to the signal ratio.
MEASUREMENT_LABEL: outcome

Answered cases to consult:
{"MOLECULE": "CC(=O)c1ccc(S(=O)(=O)NC(=O)NC2CCCCC2)cc1", "MEASUREMENT_TARGET": "Peroxisome proliferator-activated receptor delta (Homo sapiens)", "RESULT": "inactive"}
{"MOLECULE": "O=C1NC(=O)C(c2ccccc2)(c2ccccc2)N1", "MEASUREMENT_TARGET": "Peroxisome proliferator-activated receptor delta (Homo sapiens)", "RESULT": "inactive"}
{"MOLECULE": "O=c1[nH]cnc2c1ncn2[C@H]1CC[C@@H](CO)O1", "MEASUREMENT_TARGET": "Peroxisome proliferator-activated receptor delta (Homo sapiens)", "RESULT": "inactive"}
{"MOLECULE": "O=C(O)Cc1cccc2ccccc12", "MEASUREMENT_TARGET": "Peroxisome proliferator-activated receptor delta (Homo sapiens)", "RESULT": "inactive"}
{"MOLECULE": "O=C(O)c1cc(-c2ccccc2)nc2ccccc12", "MEASUREMENT_TARGET": "Peroxisome proliferator-activated receptor delta (Homo sapiens)", "RESULT": "inactive"}

Given the compound CCCNC(=O)NS(=O)(=O)c1ccc(Cl)cc1 , what is its reported outcome?
inactive

----------
assay: qHTS of pediatric cancer cell lines to identify multiple opportunities for drug repurposing: Primary screen for A673 cells (AID 1347092); conditions: A673 Ewing sarcoma viability, CellTiter-Glo ATP luminescence, 48 h; series mostly up to 46 µM; note: nearly all actives have a fitted effect of over 45% in size
Records with an inconclusive call do not appear. The source made the active and inactive calls. Calls come from the whole dose curve; as a rule, active = well fitted cell-killing curve with a large enough effect; inconclusive = small, poorly fitted or top-dose-only effect; inactive = no such curve, though single readings can be large or run the other way.
Hi there, use one of these labels in your reply, thanks! active, inactive

Given COc1cc(N2CCC(N3CCN(C)CC3)CC2)ccc1Nc1ncnc(Nc2ccccc2S(=O)(=O)C(C)C)n1 , state the outcome it received in this test.
active

Given O=c1c(-c2ccc(O)cc2)coc2cc(OC3O[C@H](CO)[C@H](O)[C@H](O)[C@H]3O)cc(O)c12 (some centres not stated) , state the outcome it received in this test.
active

Given CCC(=O)O[C@]1(C(=O)CO)CC[C@H]2[C@@H]3CCC4=CC(=O)CC[C@]4(C)[C@@H]3CC[C@@]21C , state the outcome it received in this test.
inactive

Given CNC(=O)c1ccc2cc(C3(O)CCn4cncc43)ccc2c1 (configuration not stated) , state the outcome it received in this test.
inactive

Given CC(C)C(=O)Oc1ccc(CO)cc1[C@H](CCN(C(C)C)C(C)C)c1ccccc1 , state the outcome it received in this test.
inactive

Given CN1C[C@H]2c3ccccc3Oc3ccc(Cl)cc3[C@@H]2C1 , state the outcome it received in this test.
inactive

Given CC1(C)S[C@H]2[C@H](NC(=O)[C@@H](N)c3ccc(O)cc3)C(=O)N2[C@@H]1C(=O)O , state the outcome it received in this test.
active

Given CC[C@@]1(O)C[C@H](O[C@H]2C[C@H](N(C)C)[C@H](O[C@H]3C[C@H](O)[C@H](O[C@H]4CCC(=O)[C@H](C)O4)[C@H](C)O3)[C@H](C)O2)c2c(cc3c(c2O)C(=O)c2c(O)cccc2C3=O)[C@@H]1C(=O)OC , state the outcome it received in this test.
active

Given CC(=O)O[C@]1(C(C)=O)CC[C@@H]2[C@@H]3C[C@H](C)C4=CC(=O)CC[C@]4(C)[C@H]3CC[C@@]21C , state the outcome it received in this test.
active

Given O=c1cc(-c2ccccc2)oc2cc(O)cc(O)c12 , state the outcome it received in this test.
inactive

Given CCn1cc(C(=O)O)c(=O)c2ccc(C)nc21 , state the outcome it received in this test.
inactive

Given CC(C)(C)NC(=O)Nc1cccc(Nc2ncc(F)c(NC(C)(C)CO)n2)c1 , state the outcome it received in this test.
active

Given O=C(NCc1ccncc1)C12C[C@H]3C[C@@H](C1)CC(c1ccc(Cl)cc1)(C3)C2 , state the outcome it received in this test.
active

Given O=C(OCC#CCSc1nnc(-c2cccc3ccccc23)o1)c1cc2ccccc2s1 , state the outcome it received in this test.
inactive

Given CC(C)=CC[C@@H](O)C1=CC(=O)c2c(O)ccc(O)c2C1=O , state the outcome it received in this test.
active

Given NC(N)=Nc1nc(CSCC/C(N)=N/S(N)(=O)=O)cs1 , state the outcome it received in this test.
inactive

Given Nc1ncnc2ccccc12 , state the outcome it received in this test.
active

Given CC1=C(/C=C/C(C)=C/C=C/C(C)=C/C(=O)Nc2ccc(O)cc2)C(C)(C)CCC1 , state the outcome it received in this test.
active

Given O=C1c2c(O)cc(O)cc2O[C@H](c2cc(O)c(O)c(O)c2)[C@H]1O , state the outcome it received in this test.
active

Given COc1ncc(-c2ccc3nccc(-c4ccnnc4)c3c2)cc1NS(=O)(=O)c1ccc(F)cc1F , state the outcome it received in this test.
active

Given CO[C@H]1C[C@@H]2CC[C@@H](C)[C@@](O)(O2)C(=O)C(=O)N2CCCC[C@@H]2C(=O)O[C@H]([C@H](C)C[C@@H]2CC[C@H](OP(C)(C)=O)[C@H](OC)C2)CC(=O)[C@H](C)C=C(C)[C@@H](O)[C@@H](OC)C(=O)[C@H](C)C[C@H](C)C=CC=CC=C1C , state the outcome it received in this test.
inactive

Given CN(C)CCC=C1c2ccccc2COc2ccc(CC(=O)O)cc21 , state the outcome it received in this test.
active

Given Cc1ccc(F)c(NC(=O)Nc2ccc(-c3cccc4[nH]nc(N)c34)cc2)c1 , state the outcome it received in this test.
active

Given O=C(Nc1ccccc1-c1cn2c(CN3CCNCC3)csc2n1)c1cnc2ccccc2n1 , state the outcome it received in this test.
active

Given CCN1CCC[C@H]1CNC(=O)c1cc(S(N)(=O)=O)ccc1OC , state the outcome it received in this test.
inactive

Given Cn1c(N2CCCCS2(=O)=O)nc(C(=O)NCc2ccc(F)cc2)c(O)c1=O , state the outcome it received in this test.
inactive

Given O=c1c(O)c(-c2ccc(O)cc2)oc2cc(O)cc(O)c12 , state the outcome it received in this test.
active

Given CC(=O)c1ccc(S(=O)(=O)NC(=O)NC2CCCCC2)cc1 , state the outcome it received in this test.
inactive

Given C[N+](C)(C)CCCCCC[N+](C)(C)C , state the outcome it received in this test.
inactive

Given C[N+](C)(C)CC(=O)O , state the outcome it received in this test.
inactive

Given CC1(C)CCC(CN2CCN(c3ccc(C(=O)NS(=O)(=O)c4ccc(NCC5CCOCC5)c([N+](=O)[O-])c4)c(Oc4cnc5[nH]ccc5c4)c3)CC2)=C(c2ccc(Cl)cc2)C1 , state the outcome it received in this test.
active

Given CC(C)n1cnc2c(NCCCCCCNC(=O)OC(C)(C)C)nc(NCCO)nc21 , state the outcome it received in this test.
active

Given CN(C[C@@H]1COCCO1)S(=O)(=O)Nc1ccc2ccc3ncc(-c4cnn(C)c4)cc3c(=O)c2c1 , state the outcome it received in this test.
active

Given CCOc1ccc(Nc2nc(-c3c(C)nc4ccccn34)cs2)cc1 , state the outcome it received in this test.
active

Given CN1CCN(CCOc2cc(OC3CCOCC3)c3c(Nc4c(Cl)ccc5c4OCO5)ncnc3c2)CC1 , state the outcome it received in this test.
active

Given COc1cccc2c1CCCC2CCCN1CCN(C2CCCCC2)CC1 (configuration not stated) , state the outcome it received in this test.
inactive

Given CC1(C)Cc2c(sc(NC(=S)NC(=O)c3ccccc3)c2C(=O)O)CO1 , state the outcome it received in this test.
active

# credit: PubChem BioAssay (NCATS)
